Data provenance is the supplement of paper PMC10920090.

tested on: BT-474; test: drug sensitivity score (DSS), cell viability CellTiter-Glo; higher = more sensitive; extreme values may be limits of the assay; settings: 72 h; shRNA: shPPFIA1_2
readoutKind: drug sensitivity score (DSS)
Form entry: value (DSS) — number only.

# recordSmiles, drug sensitivity score [DSS]
measured = [
    ("O=C(Nc1ccc2[nH]nc(-c3ccncc3)c2c1)[C@@H]1CCN(CC(=O)N2CCN(c3ccc(-c4ncccn4)cc3)CC2)C1", 0),
]

[in] Please report the recorded drug sensitivity score for CN[C@@H](C)C(=O)N[C@H](C(=O)N1CCC[C@H]1c1nc(C(=O)c2ccc(F)cc2)cs1)C1CCCCC1 .
[out] 1.4

[in] So what does the record say about drug sensitivity score for CO[C@H]1C[C@@H]2CC[C@@H](C)[C@@](O)(O2)C(=O)C(=O)N2CCCC[C@H]2C(=O)O[C@H]([C@H](C)C[C@@H]2CC[C@@H](OCCO)[C@H](OC)C2)CC(=O)[C@H](C)/C=C(\C)[C@@H](O)[C@@H](OC)C(=O)[C@H](C)C[C@H](C)/C=C/C=C/C=C/1C ?
[out] 3.6

[in] Looking for the measured drug sensitivity score of O=C(NOCCO)c1ccc2cncn2c1Nc1ccc(I)cc1F , can you help?
[out] 0

[in] Which measured drug sensitivity score value corresponds to CCOc1ccn(-c2ccc(F)cc2)c(=O)c1C(=O)Nc1ccc(Oc2ccnc(N)c2Cl)c(F)c1 ?
[out] 0

[in] Given Cc1cc([C@@H](C)Nc2ccccc2C(=O)O)c2nc(N3CCOCC3)cc(=O)n2c1 , state its recorded drug sensitivity score.
[out] 1.1

[in] Which drug sensitivity score value is on record for CC(=O)Nc1cccc(-n2c(=O)n(C3CC3)c(=O)c3c(Nc4ccc(I)cc4F)n(C)c(=O)c(C)c32)c1 ?
[out] 0

---

Reported drug sensitivity score values for the following compounds.
test system: UT-SCC-24A; test: drug sensitivity score (DSS), cell viability CellTiter-Glo; higher = more sensitive; extreme values may be limits of the assay; settings: 72 h; shRNA: shPPFIA1_2
Your answer is read as DSS, so omit the unit and give the number.

Take a look at these entries with their results.
# recordSmiles, drug sensitivity score (DSS)
records = [
    ("CC(=O)NCC(=O)N1[C@@H]2CC[C@H]1c1ccc(Nc3ncc(C(F)(F)F)c(NC4CCC4)n3)cc12", 8.7),
    ("O=C(Nc1ccc2[nH]nc(-c3ccncc3)c2c1)[C@@H]1CCN(CC(=O)N2CCN(c3ccc(-c4ncccn4)cc3)CC2)C1", 20.5),
    ("C[C@@H]1COC(Nc2ccc3ncnc(Nc4ccc(OCc5nccs5)c(Cl)c4)c3c2)=N1", 11),
    ("CN[C@@H](C)C(=O)N[C@H]1CN(C(=O)CC(C)C)CC[C@H]2CC[C@@H](C(=O)NC(c3ccccc3)c3ccccc3)N2C1=O", 1.9),
    ("CCOc1ccn(-c2ccc(F)cc2)c(=O)c1C(=O)Nc1ccc(Oc2ccnc(N)c2Cl)c(F)c1", 0),
]

[in] For the compound shown here, Cc1cc([C@@H](C)Nc2ccccc2C(=O)O)c2nc(N3CCOCC3)cc(=O)n2c1 , give the reported drug sensitivity score.
[out] 1.9

[in] Look up drug sensitivity score: CCC1=C[C@@H]2CN(C1)Cc1c([nH]c3ccccc13)[C@@](C(=O)OC)(c1cc3c(cc1OC)N(C)[C@H]1[C@@](O)(C(=O)OC)[C@H](OC(C)=O)[C@]4(CC)C=CCN5CC[C@]31[C@@H]54)C2
[out] 18

---

molecules and their reported drug sensitivity score
tested on: UT-SCC-24A; test: drug sensitivity score (DSS), cytotoxicity CellTox Green; higher = more cytotoxic; extreme values may be limits of the assay; settings: 72 h; shRNA: shScramble
Supply the numeric figure in DSS, leaving out any unit text.

# recordSmiles, assayTarget, reportedResult
records = [
    ("Cn1c(=O)n(-c2ccc(C(C)(C)C#N)cc2)c2c3cc(-c4cnc5ccccc5c4)ccc3ncc21", "UT-SCC-24A", 2.3),
    ("Cc1cc(C(=O)NOCCO)c(Nc2ccc(I)cc2F)n(C)c1=O", "UT-SCC-24A", 14.2),
]

Attention now turns to another entry.
[in] For C#Cc1cccc(Nc2ncnc3cc(OCCOC)c(OCCOC)cc23)c1 , what is its reported drug sensitivity score?
[out] 8.3

---

# drug sensitivity score per record follows
test system: BT-474; assay: drug sensitivity score (DSS), cell viability CellTiter-Glo; higher = more sensitive; extreme values may be limits of the assay; conditions: 72 h; shRNA: shPPFIA1_2
// units = DSS; emit number, no label

# molecule, assayTarget, drug sensitivity score / DSS
rows = [
    ("CC(=O)NCC(=O)N1[C@@H]2CC[C@H]1c1ccc(Nc3ncc(C(F)(F)F)c(NC4CCC4)n3)cc12", "BT-474", 2.8),
    ("Cc1cc(C(=O)NOCCO)c(Nc2ccc(I)cc2F)n(C)c1=O [AZD-8330]", "BT-474", 0),
    ("COc1cc(C(=O)NC2CCN(C)CC2)c(F)cc1Nc1ncc2c(n1)N(C1CCCC1)CC(F)(F)C(=O)N2C [TAK-960]", "BT-474", 0),
]

[in] Which drug sensitivity score is listed for C[C@@H]1COC(Nc2ccc3ncnc(Nc4ccc(OCc5nccs5)c(Cl)c4)c3c2)=N1 [Varlitinib] ?
[out] 9.3
